Catalogue of pIC50 readings, one per entry.
# experimental target: Prostaglandin G/H synthase 1 (Ovis aries, UniProt P05979)
# Sequence (P05979 whole entry): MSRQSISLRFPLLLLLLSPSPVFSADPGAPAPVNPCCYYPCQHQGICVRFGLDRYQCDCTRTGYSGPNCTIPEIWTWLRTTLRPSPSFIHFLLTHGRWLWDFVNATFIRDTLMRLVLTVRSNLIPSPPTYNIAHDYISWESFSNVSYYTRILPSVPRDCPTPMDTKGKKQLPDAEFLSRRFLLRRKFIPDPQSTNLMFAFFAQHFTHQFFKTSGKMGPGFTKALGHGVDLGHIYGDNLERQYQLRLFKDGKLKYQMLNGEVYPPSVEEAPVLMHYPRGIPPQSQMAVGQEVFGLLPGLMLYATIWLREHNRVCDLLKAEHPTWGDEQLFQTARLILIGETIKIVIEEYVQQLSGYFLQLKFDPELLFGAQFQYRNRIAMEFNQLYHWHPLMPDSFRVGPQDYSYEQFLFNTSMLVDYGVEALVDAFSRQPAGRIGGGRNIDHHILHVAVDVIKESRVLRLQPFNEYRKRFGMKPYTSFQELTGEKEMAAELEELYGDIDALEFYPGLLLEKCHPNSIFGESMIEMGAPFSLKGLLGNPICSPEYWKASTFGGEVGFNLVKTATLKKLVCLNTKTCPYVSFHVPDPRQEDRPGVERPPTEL
pIC50: −log10 of the molar value.
reported endpoint: pIC50

{"compound": "C#Cc1cccc(Nc2ncnc3cc(OCCO)c(OCCOC)cc23)c1", "reported endpoint": "pIC50", "reported": "< 5.00"}
{"compound": "C#Cc1cccc(Nc2ncnc3cc(OCCOC(=O)CC4=C(C)/C(=C/c5ccc([S+](C)[O-])cc5)c5ccc(F)cc54)c(OCCOC(=O)CC4=C(C)/C(=C/c5ccc([S+](C)[O-])cc5)c5ccc(F)cc54)cc23)c1 (stereo not drawn)", "reported endpoint": "pIC50", "reported": "< 5.00"}
{"compound": "C#Cc1cccc(Nc2ncnc3cc(OCCOC(=O)C(C)c4ccc5cc(OC)ccc5c4)c(OCCOC)cc23)c1 (stereo not drawn)", "reported endpoint": "pIC50", "reported": 4.61}
{"compound": "CC1=C(CC(=O)O)c2cc(F)ccc2/C1=C\\c1ccc([S+](C)[O-])cc1 (stereo not drawn)", "reported endpoint": "pIC50", "reported": 4.80}
{"compound": "C#Cc1cccc(Nc2ncnc3cc(OCCOC(=O)C(C)c4ccc(CC(C)C)cc4)c(OCCOC(=O)C(C)c4ccc(CC(C)C)cc4)cc23)c1 (stereo not drawn)", "reported endpoint": "pIC50", "reported": "< 5.00"}
{"compound": "C#Cc1cccc(Nc2ncnc3cc(OCCOC(=O)C(C)c4ccc(CC(C)C)cc4)c(OCCOC)cc23)c1 (stereo not drawn)", "reported endpoint": "pIC50", "reported": 4.35}
{"compound": "C#Cc1cccc(Nc2ncnc3cc(OCCOC(=O)c4ccccc4OC(C)=O)c(OCCOC)cc23)c1", "reported endpoint": "pIC50", "reported": "< 5.00"}
{"compound": "C#Cc1cccc(Nc2ncnc3cc(OCCOC(=O)c4ccc(C(=O)Nc5ccc6c(c5)C(C)(C)CCC6(C)C)cc4)c(OCCOC)cc23)c1", "reported endpoint": "pIC50", "reported": "< 5.00"}

###

Here we list compounds with their recorded IC50 when tested on Epidermal growth factor receptor (Homo sapiens).
Sequence (P00533 whole entry): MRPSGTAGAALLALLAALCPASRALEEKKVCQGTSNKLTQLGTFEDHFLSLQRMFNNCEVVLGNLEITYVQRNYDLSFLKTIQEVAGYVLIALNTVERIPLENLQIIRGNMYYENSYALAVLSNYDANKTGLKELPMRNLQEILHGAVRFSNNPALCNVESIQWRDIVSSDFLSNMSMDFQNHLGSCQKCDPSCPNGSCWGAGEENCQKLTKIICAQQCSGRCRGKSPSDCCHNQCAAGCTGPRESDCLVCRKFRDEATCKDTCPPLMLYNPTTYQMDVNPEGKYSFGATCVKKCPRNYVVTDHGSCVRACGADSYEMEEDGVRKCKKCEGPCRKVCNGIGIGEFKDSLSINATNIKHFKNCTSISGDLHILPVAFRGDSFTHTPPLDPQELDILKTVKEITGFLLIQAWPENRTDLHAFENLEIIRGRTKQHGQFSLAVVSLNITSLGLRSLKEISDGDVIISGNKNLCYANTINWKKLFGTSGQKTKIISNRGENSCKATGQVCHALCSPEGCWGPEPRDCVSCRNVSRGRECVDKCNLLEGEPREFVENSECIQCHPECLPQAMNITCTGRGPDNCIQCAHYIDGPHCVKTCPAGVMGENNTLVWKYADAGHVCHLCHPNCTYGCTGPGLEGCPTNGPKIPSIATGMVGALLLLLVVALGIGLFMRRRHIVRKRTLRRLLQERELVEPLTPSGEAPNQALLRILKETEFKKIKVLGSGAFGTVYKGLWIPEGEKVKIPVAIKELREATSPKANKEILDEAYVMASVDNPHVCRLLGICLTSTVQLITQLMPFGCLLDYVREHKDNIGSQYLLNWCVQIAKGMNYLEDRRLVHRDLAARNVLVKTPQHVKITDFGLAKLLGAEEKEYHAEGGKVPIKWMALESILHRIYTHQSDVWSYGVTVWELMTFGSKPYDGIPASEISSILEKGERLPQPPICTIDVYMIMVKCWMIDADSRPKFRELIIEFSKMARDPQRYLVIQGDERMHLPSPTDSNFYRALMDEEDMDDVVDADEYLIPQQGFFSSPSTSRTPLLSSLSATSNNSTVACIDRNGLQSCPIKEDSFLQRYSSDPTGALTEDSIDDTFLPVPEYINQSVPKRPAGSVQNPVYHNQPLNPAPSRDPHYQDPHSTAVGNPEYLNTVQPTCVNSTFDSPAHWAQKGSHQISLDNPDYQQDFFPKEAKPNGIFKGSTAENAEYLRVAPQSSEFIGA
reported endpoint: IC50 (µM)

{"compound": "COc1ccc2cc(C(C)C(=O)O)ccc2c1 (racemic)", "reported endpoint": "IC50", "limit sign": ">", "reported": 10}
{"compound": "C#Cc1cccc(Nc2ncnc3cc(OCCOC(=O)C(C)c4ccc5cc(OC)ccc5c4)c(OCCOC(=O)C(C)c4ccc5cc(OC)ccc5c4)cc23)c1 (stereo not drawn)", "reported endpoint": "IC50", "limit sign": "=", "reported": 0.39}
{"compound": "C#Cc1cccc(Nc2ncnc3cc(OCCOC(=O)C(C)c4ccc(CC(C)C)cc4)c(OCCOC)cc23)c1 (stereo not drawn)", "reported endpoint": "IC50", "limit sign": "=", "reported": 0.009}
{"compound": "C#Cc1cccc(Nc2ncnc3cc(OCCOC(=O)c4ccccc4OC(C)=O)c(OCCOC)cc23)c1", "reported endpoint": "IC50", "limit sign": "=", "reported": 0.005}
{"compound": "C#Cc1cccc(Nc2ncnc3cc(OCCOC(=O)Cc4c(C)n(C(=O)c5ccc(Cl)cc5)c5ccc(OC)cc45)c(OCCOC(=O)Cc4c(C)n(C(=O)c5ccc(Cl)cc5)c5ccc(OC)cc45)cc23)c1", "reported endpoint": "IC50", "limit sign": "=", "reported": 0.033}
{"compound": "C#Cc1cccc(Nc2ncnc3cc(OCCOC(=O)C(C)c4ccc5cc(OC)ccc5c4)c(OCCOC)cc23)c1 (stereo not drawn)", "reported endpoint": "IC50", "limit sign": "=", "reported": 0.072}
{"compound": "C#Cc1cccc(Nc2ncnc3cc(OCCOC(=O)Cc4c(C)n(C(=O)c5ccc(Cl)cc5)c5ccc(OC)cc45)c(OCCOC)cc23)c1", "reported endpoint": "IC50", "limit sign": "=", "reported": 0.027}
{"compound": "C#Cc1cccc(Nc2ncnc3cc(OCCOC(=O)c4ccc(C(=O)Nc5ccc6c(c5)C(C)(C)CCC6(C)C)cc4)c(OCCOC(=O)c4ccc(C(=O)Nc5ccc6c(c5)C(C)(C)CCC6(C)C)cc4)cc23)c1", "reported endpoint": "IC50", "limit sign": "=", "reported": 0.88}
